Reference for the values: ChEMBL document CHEMBL1151806

The reader will find reported IC50 values listed item by item below.
Test system: Plasmodium falciparum
Assay: Antimalarial activity after 72 hrs against chloroquine-resistant Plasmodium falciparum W2 by pLDH activity
Type: functional, organism-based
Settings: W2, 72 h
In your response, the unit should come after the numeric value.

1) C[C@@H]1N[C@H](CCCCCCCCCCc2cc(CCCCCCCCCC[C@@H]3CC[C@H](O)[C@@H](C)N3)c3[n+](c2)CCC3)CC[C@H]1O.[Cl-]    0.095 µg/mL

Kindly review the next molecule as well.
[Q] Return the recorded IC50 value; entry: `C[C@@H]1N[C@H](CCCCCCCCCCC2=C[C@@H](CCCCCCCCCC[C@@H]3CC[C@@H](O)[C@H](C)N3)[C@@H]3CCCN3C2)CC[C@H]1O`
[A] 0.23 µg/mL

* * *

System: Aspergillus fumigatus
Test: Antimicrobial activity against Aspergillus fumigatus ATCC 90906 by alamar blue assay
Format: functional, organism-based
Conditions: Aspergillus fumigatus, ATCC 90906
MEASURED_ENDPOINT: MIC (µg/mL)
Give just the numeric value; µg/mL need not be written.

Here are 2 compounds together with their reported answers.
1) C[C@H]1N[C@@H](CCCCCCCCCCC2=C[C@@H](CCCCCCCCCC[C@H]3CC[C@@H](O)[C@@H](C)N3)[C@@H]3CCCN3C2)CC[C@H]1O [JULIPROSOPINE]    1.25
2) C[C@H]1N[C@@H](CCCCCCCCCCC2=C[C@@H](CCCCCCCCCC[C@@H]3CC[C@H](O)[C@@H](C)N3)[C@@H]3CCCN3C2)CC[C@H]1O [ISOPROSOPILOSINE]    0.16

[Q] Return the recorded MIC value; entry: C[C@@H]1N[C@H](CCCCCCCCCCc2cc(CCCCCCCCCC[C@H]3CC[C@@H](O)[C@@H](C)N3)c[n+]3c2CCC3)CC[C@H]1O [ISOPROSOPILOSIDINE]
[A] 10

* * *

Tested on: Plasmodium falciparum
Assay: Antimalarial activity after 72 hrs against chloroquine-resistant Plasmodium falciparum W2 by pLDH activity
Format: functional, organism-based
Details: W2, 72 h
The reader will find reported IC50 values listed item by item below.
In your response, the unit should come after the numeric value.

Here are 3 compounds together with their reported answers.
1. C[C@H]1N[C@@H](CCCCCCCCCCC2=C[C@@H](CCCCCCCCCC[C@H]3CC[C@@H](O)[C@@H](C)N3)[C@@H]3CCCN3C2)CC[C@H]1O    0.38 µg/mL
2. C[C@@H]1N[C@H](CCCCCCCCCCc2cc(CCCCCCCCCC[C@H]3CC[C@@H](O)[C@@H](C)N3)c[n+]3c2CCC3)CC[C@H]1O    0.12 µg/mL
3. C[C@H]1N[C@@H](CCCCCCCCCCC2=C[C@@H](CCCCCCCCCC[C@@H]3CC[C@H](O)[C@@H](C)N3)[C@@H]3CCCN3C2)CC[C@H]1O    0.15 µg/mL

Kindly review the next compound as well.
[Q] Return the recorded IC50 value; entry: `C[C@H]1N[C@@H](CCCCCCCCCCC2=C[C@@H](CCCCCCCCCC[C@@H]3CC[C@H](O)[C@@H](C)N3)[C@@H]3CCCN3C2)CC[C@H]1O.Cl.Cl`
[A] 0.29 µg/mL
